Response field class: string, computed from recorded logP by ranges class 1: < 5; class 2: ≥ 5 and < 6; class 3: ≥ 6

1. CC(C)CC(NC(=O)CC(O)C(CC(C)C)NC(=O)C(CCCCNC(=O)OCc1ccccc1)NC(=O)C(Cc1ccc2ccccc2c1)Cc1cccc2ccccc12)C(=O)NCc1ccccc1 (centres undefined) ... class 3
2. CC(C)CC(NC(=O)C(CCCCNC(=N)N[N+](=O)[O-])NC(=O)C(Cc1cccc2ccccc12)Cc1cccc2ccccc12)C(O)CC(=O)NCCN1CCOCC1 (centres undefined) ... class 1
3. CSC(=NC#N)NCCCCC(NC(=O)C(Cc1ccc2ccccc2c1)Cc1cccc2ccccc12)C(=O)NC(CC(C)C)C(O)CC(=O)NCCN1CCOCC1 (centres undefined) ... class 1
4. CNC(=S)NCCCCC(NC(=O)C(Cc1ccc2ccccc2c1)Cc1cccc2ccccc12)C(=O)NC(CC(C)C)C(O)C(F)(F)C(=O)NCCN1CCOCC1 (centres undefined) ... class 2
5. CCC(C)CNC(=O)CC(O)C(CC(C)C)NC(=O)C(CC=CCNC(=S)NC)NC(=O)C(Cc1ccc2ccccc2c1)Cc1cccc2ccccc12 (centres undefined) ... class 2
6. CNC(=S)NCCCCC(C(=O)NC(CC1CCCCC1)C(O)C(F)(F)C(=O)NCCN1CCOCC1)C(=O)C(Cc1ccccc1)NS(=O)(=O)N1CCOCC1 (centres undefined) ... class 1
7. CNC(=S)NCC#CCC(NC(=O)C(Cc1ccc2ccccc2c1)Cc1cccc2ccccc12)C(=O)NC(CC1CCCCC1)C(O)CC(=O)NCCN1CCOCC1 (centres undefined) ... class 2
8. CNC(=S)NCCCCC(NC(=O)C(CC(=O)N1CCOCC1)Cc1cccc2ccccc12)C(=O)NC(CC(C)C)C(O)CC(=O)NCCN1CCOCC1 (centres undefined) ... class 1
9. CNC(=S)NCCCCC(NC(=O)C(Cc1ccc2ccccc2c1)Cc1cccc2ccccc12)C(=O)NC(CC(C)C)C(O)CC(=O)NC(CC(C)C)C(=O)NCc1ccccc1 (centres undefined) ... class 3
10. CCC(C)CNC(=O)CC(O)C(CC(C)C)NC(=O)C(CCCCNC(=S)NC)NC(=O)C(Cc1ccc2ccccc2c1)Cc1cccc2ccccc12 (centres undefined) ... class 2
11. N=C(NCC#CCC(NC(=O)C(Cc1cccc2ccccc12)Cc1cccc2ccccc12)C(=O)NC(CC1CCCCC1)C(O)CC(=O)NCCN1CCOCC1)N[N+](=O)[O-] (centres undefined) ... class 1
12. CCC(C)CNC(=O)CC(O)C(CC1CCCCC1)NC(=O)C(CCCCNC(=S)NC)NC(=O)C(Cc1ccc2ccccc2c1)Cc1cccc2ccccc12 (centres undefined) ... class 3
13. CCC(C)CNC(=O)CC(O)C(CC(C)C)NC(=O)C(CCCCNC(=O)NC)NC(=O)C(Cc1ccc2ccccc2c1)Cc1cccc2ccccc12 (centres undefined) ... class 2
